Each recorded value in this set is attributed to paper PMC7377239.

system: iCell cardiomyocytes (human iPSC-derived cardiomyocytes); assay: Intracellular Ca2+ flux / beating parameters in iCell cardiomyocytes (FLIPR tetra), 90 min or 24 h; type: cell-based; settings: Homo sapiens, Cardiomyocyte, 1.5 h, 0.10 µM; 0.00 µM = 100.00; read-out: cm.amp.avg.90min
Counter-ions that a name gives are not always drawn.
Recorded metric: activity at 0.1 µM (%)

INSERT INTO measurements (compound, target_entity, recorded_metric, unit_tag, quantitative_result) VALUES
  ('COc1ccc(-c2cccc(Cl)c2)cc1Cl [4-OMe PCB11]', 'iCell cardiomyocytes (human iPSC-derived cardiomyocytes)', 'activity at 0.1 µM', '%', 97.2),
  ('COc1ccc(-c2ccc(Cl)cc2)cc1 [4''-OMe PCB3]', 'iCell cardiomyocytes (human iPSC-derived cardiomyocytes)', 'activity at 0.1 µM', '%', 93.5),
  ('O=S(=O)(O)Oc1ccc(-c2ccc(Cl)cc2)cc1 [4''-yl PCB 3 sulfate]', 'iCell cardiomyocytes (human iPSC-derived cardiomyocytes)', 'activity at 0.1 µM', '%', 100),
  ('Oc1cc(Cl)cc(-c2cccc(Cl)c2)c1 [5-OH PCB 11]', 'iCell cardiomyocytes (human iPSC-derived cardiomyocytes)', 'activity at 0.1 µM', '%', 102),
  ('O=S(=O)(O)Oc1cc(-c2ccccc2)ccc1Cl [3-yl PCB 3 sulfate]', 'iCell cardiomyocytes (human iPSC-derived cardiomyocytes)', 'activity at 0.1 µM', '%', 102);
